- Target or system: T1, Epstein-Barr virus BHRF1 a.a. 1-161 with C-terminal avi-6his tag (Epstein-Barr virus)
- T1 construct: also called EBV BHRF1; BHRF1-biotin
- T1 chain: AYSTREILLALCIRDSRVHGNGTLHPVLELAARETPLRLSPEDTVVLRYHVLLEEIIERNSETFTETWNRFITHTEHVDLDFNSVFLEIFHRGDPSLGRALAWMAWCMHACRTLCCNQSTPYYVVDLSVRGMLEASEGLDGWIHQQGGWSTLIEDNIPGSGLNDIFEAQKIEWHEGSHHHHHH
- Test details: yeast surface display; BHRF1 titrated on clonal yeast showing the design, fluorescence by flow cytometry (apparent KD)
Readout: Kd (nM)
Numbers only, in nM.

Examples from the recorded data:
Index 02 (designed binder) GKSLLGIALEALEEAKRDLEKAKKQMEEMLKKKWKFDTTRDLKARASAEWIAAALKAIGDRFNAKLLIELGLDELFNKGLITQDIKEDIKRRAEEIFEKIERLIKQAIKDKDRFEKLG ... 110
Index 03 (designed binder) GLDHDKIVDEARKKMEKKIREAKDKAKEFVLKALDNNHDLKQFRELAHKWIALMLMAIGDAFNIMMEAKRKAEWLREQGQQDEDKAEEAKEKLDKAFKEAAERFEEIAKIYGKQAKNG ... 160
Index 01 (designed binder) GKRLEETVEETERRLREALREVYLLILLLAEEAKKKDLKEQNRHEYVFKWIAFMLMAIGDIFNIAEESKRRLDLFAKWGLHDRNKIDEAKKKIDKLALEAIERAKKYGDWFLNELDKG ... 39

Find the recorded Kd belonging to Index 04 (designed binder) GLLAEEGREQAEERLREARKKAEKAGDKIKDLAKYGQDSDDEKKKFMLKWIAAQLMVIGDMFNHAMEALWELLRRLKNNKISWDAFLKAKEEIEREEKEAARDSREKGREAAKMIDQG and report it.
44
